Value source: paper PMC7734281

Molecular target: m-NTPDase1 (Mus musculus, UniProt P55772)
Construct: made in house; host or cells: COS-7 cells, transient transfection; crude protein extract after sonication
Sequence (P55772 whole entry): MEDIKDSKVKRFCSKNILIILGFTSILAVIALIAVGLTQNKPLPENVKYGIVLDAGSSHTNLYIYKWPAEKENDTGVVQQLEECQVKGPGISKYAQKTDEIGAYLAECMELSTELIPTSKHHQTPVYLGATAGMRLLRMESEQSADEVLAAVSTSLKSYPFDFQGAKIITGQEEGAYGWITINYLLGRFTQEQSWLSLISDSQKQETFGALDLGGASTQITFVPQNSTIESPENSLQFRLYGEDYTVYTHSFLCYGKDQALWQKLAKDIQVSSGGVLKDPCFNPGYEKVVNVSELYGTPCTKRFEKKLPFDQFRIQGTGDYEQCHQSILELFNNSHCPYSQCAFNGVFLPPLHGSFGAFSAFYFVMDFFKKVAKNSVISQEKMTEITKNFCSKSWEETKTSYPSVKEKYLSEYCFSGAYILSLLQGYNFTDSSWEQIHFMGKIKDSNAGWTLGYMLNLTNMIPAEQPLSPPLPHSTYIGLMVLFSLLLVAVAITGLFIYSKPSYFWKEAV
Test: m-NTPDase1 inhibition, malachite green assay
Assay type: biochemical
test_readout: Ki (µM)

Example results:
>>> df
                              smiles_code  test_readout  recorded_measurement
0     O=C1Nc2ccccc2/C1=N/NC(=S)NCc1ccccc1            Ki                  0.04
1  O=C1Nc2ccccc2/C1=N/NC(=S)Nc1c(F)cccc1F            Ki                  0.03

A: CCNC(=S)N/N=C1\C(=O)Nc2ccccc21
B: COc1cccc(NC(=S)N/N=C2\C(=O)Nc3ccccc32)c1
Prompt: Of the two listed items, which has the higher Ki? First: A Second: B Choose, then provide that item's label.
Completion: A
